Molecular target: AKT1 WT (Homo sapiens, UniProt P31749)
Construct: expressed in transfected cells; host or cells: HEK293
Sequence (P31749 whole entry): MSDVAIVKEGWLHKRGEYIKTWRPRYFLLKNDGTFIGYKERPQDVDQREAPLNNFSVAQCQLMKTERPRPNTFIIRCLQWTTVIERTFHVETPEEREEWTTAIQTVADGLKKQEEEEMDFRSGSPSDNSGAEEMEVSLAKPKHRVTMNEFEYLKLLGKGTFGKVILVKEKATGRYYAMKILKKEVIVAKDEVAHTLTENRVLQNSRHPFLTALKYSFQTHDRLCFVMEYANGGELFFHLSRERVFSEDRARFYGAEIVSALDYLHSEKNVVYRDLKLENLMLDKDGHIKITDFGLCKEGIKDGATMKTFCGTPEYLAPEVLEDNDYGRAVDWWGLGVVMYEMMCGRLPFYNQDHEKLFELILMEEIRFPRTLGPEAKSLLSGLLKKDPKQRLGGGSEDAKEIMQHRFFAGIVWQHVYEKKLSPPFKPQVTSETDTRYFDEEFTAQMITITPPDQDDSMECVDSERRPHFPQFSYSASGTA
Assay: Live cell AKT1 WT target engagement by NanoBRET competitive probe displacement in HEK293 cells
Assay type: binding
Settings: NanoBRET competitive probe displacement, live HEK293 cells, 2 h at 37° C.; read-out: AKT1 WT IC50
pIC50: −log10 of the molar value.
measuredEndpoint: pIC50

Solved cases (3 shown):
[
  {
    "compound": "Nc1ncccc1-c1nc2ccc(-n3cccn3)nc2n1-c1ccc2c(c1)CC[C@@H]2NC(=O)c1cc(C(F)F)ns1 [Compound 452]",
    "pIC50": 8.18
  },
  {
    "compound": "COCc1ccn(-c2ccc3nc(-c4cccnc4N)n(-c4ccc5c(c4)CC[C@@H]5NC4CCN(C(=O)C5CC5)CC4)c3n2)n1 [Compound 590]",
    "pIC50": 7.34
  },
  {
    "compound": "COc1cc2c(cn1)CCC2N[C@H]1CCc2cc(-n3c(-c4cccnc4N)nc4ccc(-n5cccn5)nc43)ccc21 (stereo partly shown) [Compound 511]",
    "pIC50": 7.98
  }
]

A = CN1CCC(n2ccc(-c3ccc4nc(-c5cccnc5N)n(-c5ccc6c(c5)CC[C@@H]6NC5CCN(C(=O)C6CC6)CC5)c4n3)n2)CC1 [Compound 570]
B = Cc1cnsc1C(=O)N[C@H]1CCc2cc(-n3c(-c4cccnc4N)nc4ccc(-n5cccn5)nc43)ccc21 [Compound 451]
C = CN(C)c1ccn(-c2ccc3nc(-c4cccnc4N)n(-c4ccc5c(c4)CC[C@@H]5NC4CCN(c5ccn(C)n5)CC4)c3n2)n1 [Compound 589]
Provide the items ranked by increasing pIC50. # respond with the labels, arranged in the requested order A, C, B
(A: 7.32, C: 7.77, B: 8.09)

1 = Cn1ccc(N2CCC(N[C@H]3CCc4cc(-n5c(-c6cccnc6N)nc6ccc(-n7ccc(C8CCOCC8)n7)nc65)ccc43)CC2)n1 [Compound 549]
2 = COCCOc1ccn(-c2ccc3nc(-c4cccnc4N)n(-c4ccc5c(c4)CC[C@@H]5NC4CCN(c5ccn(C)n5)CC4)c3n2)n1 [Compound 551]
3 = Nc1ncccc1-c1nc2ccc(-n3cccn3)nc2n1-c1ccc2c(c1)CC[C@@H]2NC1CCN(C(=O)[C@H]2CC2(F)F)CC1 [Compound 476]
Arrange the 3 entries by pIC50 so the values rise. A ranking is expressed here by listing the labels in the requested order. 3, 1, 2
(3: 6.68, 1: 7.56, 2: 7.88)

A = COc1ccn(-c2ccc3nc(-c4cccnc4N)n(-c4ccc5c(c4)CC[C@@H]5NC4CCN(C(=O)C5CC5)CC4)c3n2)n1 [Compound 440]
B = Nc1ncccc1-c1nc2ccc(-n3cccn3)nc2n1-c1ccc2c(c1)CC[C@@H]2NC1CCN(S(=O)(=O)C2CC2)CC1 [Compound 393]
// compare measured pIC50 between A and B ; output the lower one Your answer should be the label attached to the chosen record. B
(B: 6.90, A: 7.61)

A = Nc1ncccc1-c1nc2ccc(-n3ccc(Oc4ccncc4)n3)nc2n1-c1ccc2c(c1)CC[C@@H]2NC1CCN(C(=O)C2CC2)CC1 [Compound 575]
B = Nc1ncccc1-c1nc2ccc(-n3ncc(C4CC4)n3)nc2n1-c1ccc2c(c1)CC[C@@H]2NC(=O)c1cnc(C(F)F)s1 [Compound 588]
C = COC1CN(c2ccn(-c3ccc4nc(-c5cccnc5N)n(-c5ccc6c(c5)CC(F)[C@@H]6NC5CCN(C(=O)C6CC6)CC5)c4n3)n2)C1 (stereo partly shown) [Compound 553]
Order field: pIC50 | Direction: descending (largest first) Please, when replying, give the labels in the order that was requested. C, B, A
(C: 8.15, B: 7.57, A: 6.66)
